target: recombinant human LTA4 hydrolase (rhLTA4H) (Homo sapiens, UniProt P09960); assay: Recombinant human LTA4 hydrolase assay for LTA4 hydrolase inhibitor activity; details: read-out: Recombinant Human LTA4 Hydrolase Assay IC50 LTA4H
readout-name: IC50 (µM)
Give the quantity in µM, number only.

Tell me IC50 of c1ccc(Cc2ccc(OCCN3CCCCCC3)cc2)cc1 when tested on recombinant human LTA4 hydrolase (rhLTA4H) (Homo sapiens, UniProt P09960).
0.037

* * *

tested on: LTB4 production in mouse blood (LTA4 hydrolase); assay: Ex vivo LTB4 production by calcium ionophore stimulated mouse blood after oral dosing; format: in vivo; details: Mus musculus, po, 1 h, read-out: Murine Ex Vivo LTB4 Inhibition % I LTB4
Structures can show the parent of a compound that is named as a salt.
readout-name: inhibition in vivo at 10 mg/kg (%)
API: value field is a number in %; no unit string.

Example entries and their recorded answers appear below.
COC(=O)C1CC2CCC(C1)N2CC1Cc2cc(Cc3ccccc3)ccc2O1 (stereo not shown) [Example 283]: 90
COC(=O)CC1CC2CC1CN2CCOc1ccc(Cc2ccccc2)cc1 (stereo not shown) [Example 304]: 80
c1ccc(Cc2ccc(OCCN3CCCCC3)cc2)cc1 [Example 401]: 23
c1ncc(Cc2ccc(OCCN3CCCC3)cc2)s1 [Example 122]: 57
COC(=O)CCN(C)CCCOc1ccc(Cc2ccsc2)cc1 [Example 330]: 95

Output measured inhibition in vivo at 10 mg/kg for this item: c1nc(Cc2ccc(OCCN3CCCC3)cc2)cs1 [Example 49]
46

Specify inhibition in vivo at 10 mg/kg for c1cc(Cc2ccc(OCCN3CCCC3)cc2)cs1 [Example 134] and stop.
63

Supply recorded inhibition in vivo at 10 mg/kg for c1csc(Cc2ccc(OCCN3CCCC3)cc2)n1 [Example 121] here.
48

Complete the entry with inhibition in vivo at 10 mg/kg for [O-][S+](CCN1CCCC1)c1ccc(Cc2ccccc2)cc1 (stereo not shown) [Example 69, monohydrochloride]
13

Return the recorded inhibition in vivo at 10 mg/kg value; entry: [O-][n+]1ccc2c(c1)ncn2CCOc1ccc(Cc2ccccc2)cc1 [Example 365]
72

* * *

Biological target: recombinant human LTA4 hydrolase (rhLTA4H) (Homo sapiens, UniProt P09960)
Sequence (P09960 1-611): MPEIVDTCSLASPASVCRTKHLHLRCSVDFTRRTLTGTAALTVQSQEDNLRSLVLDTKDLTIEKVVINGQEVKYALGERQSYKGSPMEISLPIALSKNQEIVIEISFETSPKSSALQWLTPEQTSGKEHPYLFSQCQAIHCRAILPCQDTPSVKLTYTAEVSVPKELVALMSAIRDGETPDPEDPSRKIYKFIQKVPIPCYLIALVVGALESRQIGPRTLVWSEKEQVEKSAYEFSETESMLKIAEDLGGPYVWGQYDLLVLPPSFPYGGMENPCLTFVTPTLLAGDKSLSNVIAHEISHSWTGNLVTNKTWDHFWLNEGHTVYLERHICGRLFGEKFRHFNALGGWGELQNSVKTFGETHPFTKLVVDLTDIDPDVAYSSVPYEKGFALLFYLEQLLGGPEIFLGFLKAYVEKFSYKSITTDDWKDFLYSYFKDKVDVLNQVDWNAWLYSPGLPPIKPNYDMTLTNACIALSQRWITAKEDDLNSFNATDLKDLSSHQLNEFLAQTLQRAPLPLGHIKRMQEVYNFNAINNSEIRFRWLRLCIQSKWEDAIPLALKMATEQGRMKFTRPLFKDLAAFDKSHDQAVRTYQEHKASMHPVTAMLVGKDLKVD
Assay: Recombinant human LTA4 hydrolase assay for LTA4 hydrolase inhibitor activity
Details: Recombinant Human LTA4 Hydrolase Assay IC50 LTA4H, recombinant hLTA4H
Where a name gives a salt, the structure may show the parent alone.
Field 'label' (enum: rule met / rule not met). Set to rule met when IC50 is strictly under 300 nM; else rule not met.

CCOC(=O)C1CCN(CCOc2ccc(Cc3ccsc3)cc2)CC1: rule not met
OC1CCN(CCOc2ccc(Cc3ccccc3)cc2)C1 (stereo not shown): rule met
CC(=O)N[C@H]1C[C@@H](C)N(CCOc2ccc(Cc3ccccc3)cc2)[C@@H](C)C1: rule met
Cc1ccc(COc2ccc(OCCN3CCCC3)cc2)cc1: rule not met
Clc1cccc(COc2ccc(OCCN3CCCC3)cc2)c1: rule met

Dear reviewer, please state whether CC1CC(C(N)=NO)CCN1CCOc1ccc(Cc2ccccc2)cc1 (stereo not shown) has IC50 strictly beneath 300 nM.
rule not met

Would you kindly verify if IC50 of CC1CCC(C)N1CCOc1ccc(Cc2ccccc2)cc1 (stereo not shown) is strictly less than 300 nM?
rule met

hey, is IC50 for c1ccc(Cc2ccc(OCCn3ccnc3)cc2)cc1 lower than 300 nM or not?
rule met

I'd appreciate it if you could check whether c1ccc(COc2ccc(OCCn3cccc4ncnc3-4)cc2)cc1 has IC50 smaller than 300 nM.
rule not met

For [O-][S+](CCN1CCCC1)c1ccc(Cc2ccccc2)cc1 (stereo not shown) [Example 69, monohydrochloride] , is the recorded IC50 below the cut-off of 300 nM?
rule not met

These measurements were taken from patent US6506876B1.
